Each entry below lists one item and its recorded hCD71:HSA value.
- study.system: T1, human CD71 extracellular domain (human, UniProt P02786 89-760)
- T1 construct: also called hCD71; human CD71-ECD
- T1 sequence (P02786 89-760): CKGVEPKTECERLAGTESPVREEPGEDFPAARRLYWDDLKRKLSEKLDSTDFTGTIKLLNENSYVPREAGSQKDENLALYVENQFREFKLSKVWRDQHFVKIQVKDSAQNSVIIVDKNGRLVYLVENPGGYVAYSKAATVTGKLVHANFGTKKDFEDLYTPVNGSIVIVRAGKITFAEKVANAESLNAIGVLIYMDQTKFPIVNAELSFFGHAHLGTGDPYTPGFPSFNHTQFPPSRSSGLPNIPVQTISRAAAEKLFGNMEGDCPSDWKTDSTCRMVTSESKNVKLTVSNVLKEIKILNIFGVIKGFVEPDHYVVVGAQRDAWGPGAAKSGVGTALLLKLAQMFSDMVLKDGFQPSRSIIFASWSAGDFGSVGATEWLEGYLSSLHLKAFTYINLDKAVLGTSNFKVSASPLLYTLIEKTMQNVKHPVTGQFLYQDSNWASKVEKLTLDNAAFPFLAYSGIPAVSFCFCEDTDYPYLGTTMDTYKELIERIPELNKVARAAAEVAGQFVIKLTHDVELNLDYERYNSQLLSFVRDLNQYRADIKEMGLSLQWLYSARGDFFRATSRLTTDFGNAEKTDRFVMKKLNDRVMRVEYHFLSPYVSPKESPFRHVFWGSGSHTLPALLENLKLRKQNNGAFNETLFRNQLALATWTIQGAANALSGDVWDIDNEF
- assay.summary: primary ELISA, signal ratio to HSA
Please give the numeric answer without any surrounding text.

- CD71-binding FN3 domain of SEQ ID NO: 127 (designed binder) MSLPAPKNLVVSRVTEDSARLSWTAPDAAFDSFFIGYLEPQPPGEAITLLVPGSERSYDLTGLKPGTEYNVTIQGVKGGFPSGPLQASFTT: 188
- CD71-binding FN3 domain of SEQ ID NO: 200 (designed binder) MSLPAPKNLVVSRVTEDSARLSWTAPDAAFDSFEIGYFENLYLGEAIVLTVPGSERSYDLTGLKPGTEYWVQIGGVKGSNWSAPLSAIFTT: 127
- CD71-binding FN3 domain of SEQ ID NO: 211 (designed binder) MSLPAPKNLVVSRVTEDSARLSWTAPDAAFDSFEIVYAEPVRFGEAIVLTVPGSERSYDLTGLKPGTEYWVQIGGVKGGEWSSLLSAIFTT: 76

Here is the next item to consider.
In: For the binder CD71-binding FN3 domain of SEQ ID NO: 145 (designed binder) MSLPAPKNLVVSRVTEDSARLSWTAPDAAFDSFFIGYLEPQPPGEAIALLVPGSERSYDLTGLKPGTEYNVTIQGVKGGFPSHPLSAKFTT , report hCD71:HSA.
Out: 158

Hey, just so you know, these numbers are from patent US20260151494A1.
